These entries and their values trace back to paper PMC12723204.

# Experimental Protocol: Cytotoxicity against mammalian cells (MTT)
# Format: cell-based, BALB/c mice
# Condition: BALB/c, mouse; peritoneal murine macrophages, 72 h, MTT
Test Readout: log10 CC50 at 72 h (log10 of the value in µM)

Molecule	Test Readout	Measured Number
CCCCCCCCn1cc(COC(=O)c2ccccc2O)[n+](C)n1.[I-] [Compound 7]	log10 CC50 at 72 h	2.05
CCCCCCCCCCCCCCCCOP(=O)([O-])OCC[N+](C)(C)C [Miltefosine, reference compound]	log10 CC50 at 72 h	2.18
CCCCCCCCCCn1cc(COC(=O)c2ccccc2O)[n+](C)n1.[I-] [Compound 8]	log10 CC50 at 72 h	-0.51
CCCCCCCCCCCCCCn1cc(COC(=O)c2ccccc2O)[n+](C)n1.[I-] [Compound 10]	log10 CC50 at 72 h	0.37
CCCCCCCCCCCCCCCCn1cc(COC(=O)c2ccccc2O)[n+](C)n1.[I-] [Compound 11]	log10 CC50 at 72 h	0.60
C[C@@H]1[C@H](O)[C@@H](C)/C=C/C=C/C=C/C=C/C=C/C=C/C=C/[C@H](O[C@@H]2O[C@H](C)[C@@H](O)[C@H](N)[C@@H]2O)C[C@@H]2O[C@](O)(C[C@@H](O)C[C@@H](O)[C@H](O)CC[C@@H](O)C[C@@H](O)CC(=O)O[C@H]1C)C[C@H](O)[C@H]2C(=O)O [Am B, amphotericin B, reference compound]	log10 CC50 at 72 h	-0.15

----------
# Experimental Protocol: Cytotoxicity against mammalian cells (MTT)
# Format: cell-based, BALB/c mice
# Condition: BALB/c, mouse; peritoneal murine macrophages, 72 h, MTT
Test Readout: CC50 at 72 h (µM)

> print(dat)
                            chemical.string  unit.tag  relation.symbol  measured.number
1  CCCCCCCCCCCCn1cc(COC(=O)c2ccccc2O)[n+](C)n1        µM                =             1.34
2       CCCCCCCCCCn1cc(COC(=O)c2ccccc2O)nn1        µM                =             70.2
3     CCCCCCCCCCCCn1cc(COC(=O)c2ccccc2O)nn1        µM                >              150

----------
# Experimental Protocol: Cytotoxicity against mammalian cells (MTT)
# Type: cell-based, BALB/c mice
# Condition: BALB/c, mouse; peritoneal murine macrophages, 72 h, MTT
Test Readout: CC50 at 72 h

> print(dat)
                            chemical.string    result
1         CCCCCCCCn1cc(COC(=O)c2ccccc2O)nn1  > 150 µM
2  CCCCCCCCCCCCCCCCn1cc(COC(=O)c2ccccc2O)nn1  > 150 µM
3   CCCCCCCCCCCCCCn1cc(COC(=O)c2ccccc2O)nn1  > 150 µM
